# Experimental target: recombinant PI3K (p110α/p85α) (Homo sapiens, UniProt P42336)
# Sequence (P42336 whole entry): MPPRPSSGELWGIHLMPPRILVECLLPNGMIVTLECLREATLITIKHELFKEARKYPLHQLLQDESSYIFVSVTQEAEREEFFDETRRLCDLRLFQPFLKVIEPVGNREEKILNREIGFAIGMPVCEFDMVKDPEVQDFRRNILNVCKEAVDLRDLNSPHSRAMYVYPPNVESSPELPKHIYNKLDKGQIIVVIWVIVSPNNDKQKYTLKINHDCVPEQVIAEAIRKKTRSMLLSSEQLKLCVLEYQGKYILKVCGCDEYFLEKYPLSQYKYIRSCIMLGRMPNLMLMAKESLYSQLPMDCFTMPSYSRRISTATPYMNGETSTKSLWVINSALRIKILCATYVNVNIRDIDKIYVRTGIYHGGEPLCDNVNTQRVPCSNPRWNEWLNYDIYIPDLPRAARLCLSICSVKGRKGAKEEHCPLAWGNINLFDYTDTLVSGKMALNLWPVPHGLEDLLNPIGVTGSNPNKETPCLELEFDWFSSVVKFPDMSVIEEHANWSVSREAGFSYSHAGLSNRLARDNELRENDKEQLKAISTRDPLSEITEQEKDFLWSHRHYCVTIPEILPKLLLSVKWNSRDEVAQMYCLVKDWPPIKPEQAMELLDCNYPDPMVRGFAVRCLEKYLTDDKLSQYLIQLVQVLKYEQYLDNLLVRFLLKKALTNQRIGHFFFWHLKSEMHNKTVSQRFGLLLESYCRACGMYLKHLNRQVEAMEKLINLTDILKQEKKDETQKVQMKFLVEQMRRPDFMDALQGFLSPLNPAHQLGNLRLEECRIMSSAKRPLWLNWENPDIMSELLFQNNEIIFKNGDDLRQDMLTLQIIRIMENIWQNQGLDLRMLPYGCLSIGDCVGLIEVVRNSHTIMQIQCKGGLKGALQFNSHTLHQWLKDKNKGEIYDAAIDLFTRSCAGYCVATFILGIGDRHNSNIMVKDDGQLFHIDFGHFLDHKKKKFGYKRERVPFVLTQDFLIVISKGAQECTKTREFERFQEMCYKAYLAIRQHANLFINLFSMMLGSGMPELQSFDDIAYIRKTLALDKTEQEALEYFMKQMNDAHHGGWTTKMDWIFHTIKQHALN
# Sequence (P27986 whole entry partner): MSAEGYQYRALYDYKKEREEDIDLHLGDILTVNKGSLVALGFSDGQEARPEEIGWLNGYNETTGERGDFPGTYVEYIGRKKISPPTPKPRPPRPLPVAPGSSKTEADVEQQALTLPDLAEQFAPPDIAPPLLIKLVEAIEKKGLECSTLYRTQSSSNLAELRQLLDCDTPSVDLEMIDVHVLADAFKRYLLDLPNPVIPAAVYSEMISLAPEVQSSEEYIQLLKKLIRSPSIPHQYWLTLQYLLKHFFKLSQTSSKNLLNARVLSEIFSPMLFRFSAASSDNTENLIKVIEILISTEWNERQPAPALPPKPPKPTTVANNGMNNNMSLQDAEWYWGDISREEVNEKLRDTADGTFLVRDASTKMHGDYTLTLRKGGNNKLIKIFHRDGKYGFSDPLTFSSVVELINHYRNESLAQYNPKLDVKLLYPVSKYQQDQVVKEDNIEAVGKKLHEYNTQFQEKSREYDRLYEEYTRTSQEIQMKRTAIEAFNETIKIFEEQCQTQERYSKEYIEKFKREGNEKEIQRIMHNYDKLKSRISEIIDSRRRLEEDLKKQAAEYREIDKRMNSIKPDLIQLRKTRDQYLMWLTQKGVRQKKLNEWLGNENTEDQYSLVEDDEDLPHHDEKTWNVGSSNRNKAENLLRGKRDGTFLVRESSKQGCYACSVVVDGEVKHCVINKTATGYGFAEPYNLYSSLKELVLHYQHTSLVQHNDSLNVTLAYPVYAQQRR
# Method description: PI3Kα ADP-Glo kinase assay
# Format: biochemical
# Conditions: read-out: PI3Kα Enzyme activity IC50
IC50 listing for selected compounds.
Metric: IC50 (µM)

INSERT INTO measurements (compound, metric, unit_tag, endpoint_value) VALUES
  ('CC(C)Oc1c(C(C)c2nc(Cl)c3c(N)nccn23)cc(Cl)c(F)c1C1CNC(=O)C1 (centres unmarked) [Compound 48]', 'IC50', 'µM', 0.54),
  ('CC(C)Oc1c(C(C)c2nc(Cl)c3c(N)nccn23)cc(F)c(Cl)c1-c1ccc(C(F)(F)F)nc1 (centres unmarked)', 'IC50', 'µM', 23),
  ('CC(C)Oc1c(C(C)c2nc(Cl)c3c(N)nccn23)cc(Cl)c(Cl)c1-c1ccc(C(F)(F)F)nc1 (centres unmarked)', 'IC50', 'µM', 11),
  ('Cc1nc([C@@H](C)c2cc(Cl)c(F)c(-c3ccc(C(=O)N4CC(C(=O)O)C4)nc3)c2OC(C)C)n2ccnc(N)c12', 'IC50', 'µM', 5.4),
  ('CCOc1c(C(C)c2nc(Br)c3c(N)nccn23)cc(Cl)c(C)c1-c1ccc(OCCOC)nc1 (centres unmarked)', 'IC50', 'µM', 1.8);

* * *

# Experimental target: recombinant PI3K (p110α/p85α) (Homo sapiens)
# Method description: PI3Kα ADP-Glo kinase assay
# Format: biochemical
# Conditions: read-out: PI3Kα Enzyme activity IC50
hey, just use Satisfied if measured IC50 is less than 2000 nM, otherwise Not satisfied

INSERT INTO results (compound, class_name) VALUES
  ('CCOc1c([C@H](C)c2nc(Cl)c3c(N)nccn23)cc(Cl)c(F)c1-c1ccc(C(F)(F)F)nc1OC [Compound 43A]', 'Not satisfied'),
  ('Cc1c(Cl)cc(C(C)c2nc(Br)c3c(N)nccn23)c(OC(C)C)c1-c1ccc(C(F)(F)F)nc1 (centres unmarked)', 'Not satisfied'),
  ('CCOc1c(C(C)c2nc(-c3cccc(O)c3)c3c(N)nccn23)cc(Cl)c(C)c1-c1ccc(C(F)(F)F)nc1 (centres unmarked)', 'Not satisfied'),
  ('CC(C)Oc1c(C(C)c2nc(Cl)c3c(N)nccn23)cc(Cl)c(F)c1-c1ccc(C(N)=O)nc1 (centres unmarked)', 'Not satisfied'),
  ('Cc1nc([C@@H](C)c2cc(Cl)c(F)c(-c3ccc(C(=O)N4CCC(O)CC4)nc3)c2OC(C)C)n2ccnc(N)c12', 'Not satisfied'),
  ('CCOc1c(C(C)c2nc(Cl)c3c(N)nccn23)cc(Cl)c(C)c1-c1ccc(C)nc1 (centres unmarked)', 'Satisfied'),
  ('CCOc1c(C(C)c2nc(Cl)c3c(N)nccn23)cc(Cl)c(C)c1-c1ccc(OC)cc1 (centres unmarked)', 'Satisfied'),
  ('CCOc1c(C(C)c2nc(Cl)c3c(N)nccn23)cc(Cl)c(C)c1N1CCOCC1 (single isomer, unassigned) [Compound 51A]', 'Not satisfied'),
  ('Cc1nc([C@@H](C)c2cc(Cl)c(F)c(-c3ccc(C(=O)NCCO)nc3)c2OC(C)C)n2ccnc(N)c12', 'Not satisfied'),
  ('CC(C)Oc1c([C@H](C)c2nc(Cl)c3c(N)nccn23)cc(Cl)c(F)c1-c1ccc(C(N)=O)nc1 [Compound 17B]', 'Satisfied'),
  ('Cc1nc([C@@H](C)c2cc(Cl)c(F)c(-c3ccc(C(=O)N4CC[C@@H](O)C4)nc3)c2OC(C)C)n2ccnc(N)c12', 'Satisfied');

* * *

# Experimental target: recombinant PI3K (p110α/p85α) (Homo sapiens, UniProt P42336)
# Method description: PI3Kα ADP-Glo kinase assay
# Assay type: biochemical
# Conditions: read-out: PI3Kα Enzyme activity IC50
Metric: IC50

INSERT INTO measurements (molecule, metric, endpoint_value) VALUES
  ('CCOc1c(C(C)c2nc(Cl)c3c(N)nccn23)cc(Cl)c(F)c1-c1ccc(C(F)(F)F)nc1OC (stereo not drawn) [Compound 43]', 'IC50', '> 50 µM'),
  ('Cc1c(Cl)cc([C@H](C)c2nc(Br)c3c(N)nccn23)c(OC(C)C)c1-c1ccc(C(F)(F)F)nc1 [Compound 38A]', 'IC50', '> 200 µM'),
  ('CC(C)Oc1c(C(C)c2nc(Cl)c3c(N)nccn23)cc(Cl)c(F)c1-c1ccc(C(F)(F)F)nc1 (stereo not drawn) [Compound 40]', 'IC50', '> 50 µM');
